Measured values drawn from patent US20260258084A1 for this set.

Biological target: T1, IL-23 receptor on the surface of HEK-Blue IL-23 cells (UniProt Q5VWK5 24-629, limits assumed)
T1 sequence (looked up): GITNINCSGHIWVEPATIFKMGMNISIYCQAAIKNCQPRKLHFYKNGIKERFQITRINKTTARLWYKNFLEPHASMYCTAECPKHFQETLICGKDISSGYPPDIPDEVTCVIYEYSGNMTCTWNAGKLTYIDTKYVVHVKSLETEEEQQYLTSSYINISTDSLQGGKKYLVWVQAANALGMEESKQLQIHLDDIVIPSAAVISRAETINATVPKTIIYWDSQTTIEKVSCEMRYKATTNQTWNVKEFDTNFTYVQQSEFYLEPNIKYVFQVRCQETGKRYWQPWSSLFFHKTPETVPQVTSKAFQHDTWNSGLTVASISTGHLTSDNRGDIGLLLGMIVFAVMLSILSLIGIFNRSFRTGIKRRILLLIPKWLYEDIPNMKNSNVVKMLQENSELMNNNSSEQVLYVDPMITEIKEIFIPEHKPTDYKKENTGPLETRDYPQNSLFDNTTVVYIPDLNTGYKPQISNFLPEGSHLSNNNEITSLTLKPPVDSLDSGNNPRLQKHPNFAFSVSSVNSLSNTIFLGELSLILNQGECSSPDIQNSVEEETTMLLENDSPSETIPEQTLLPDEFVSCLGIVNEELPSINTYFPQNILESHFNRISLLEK
Experiment: cell-based or functional assay
Starred links: 1 amine or outer side, 2 acyl side, 3 side chain; linkers in the order of their positions; H or OH if unused. Positions of bridges follow the written chain, without caps; N, C: chain ends. Non-standard residues stand in square brackets, D forms with d. Yde = (2S)-2-amino-3-[4-[2-(dimethylamino)ethoxy]phenyl]propanoic acid, CN(C)CCOc1ccc(C[C@H](N[*:1])C(=O)[*:2])cc1; Phe(4-OMe) = COc1ccc(C[C@H](N[*:1])C(=O)[*:2])cc1; Trp(7-Me) = Cc1cccc2c(C[C@H](N)C(=O)O)c[nH]c12; Trp(1-Me) = Cn1cc(C[C@H](N)C(=O)O)c2ccccc21; αMeLys(Me2) = CN(C)CCCC[C@](C)(N)C(=O)O; 2Nal = N[C@@H](Cc1ccc2ccccc2c1)C(=O)O; 3Pal = N[C@@H](Cc1cccnc1)C(=O)O; Thp = NC1(C(=O)O)CCOCC1; Aib = CC(C)(N)C(=O)O; Ahx = NCCCCCC(=O)O; Ava = NCCCCC(=O)O; Sar = CNCC(=O)O
Consider the following binders; for each one, report its pSTAT3 (nM).
State just the number; it will be interpreted in nM.

I am curious: what pSTAT3 (nM) value has been reported for [Ava]CK[Trp(1-Me)]K(Ac)C[Yde][2Nal][Thp]EN[3Pal][Sar]-NH2 (lactam N-10; disulfide 2-6; not fully specified (residue 3); printed as Apt(§1)-C(§3)(@2)-K[aAc](@3)-Wme-K[Ac]-C(@2)-Yde-Nal-ThpE(§1)-N-Pal-Sar-NH2; also: K[aAc]: Cys2 bonded to epsilon-NH2 of acetylated Lys3, acetyl presumably on alpha-amine) [Compound of SEQ ID NO: 126] ? 0.11

I am curious: what pSTAT3 (nM) value has been reported for [Ava]CNT[Trp(7-Me)]K(Ac)C[Yde][2Nal][αMeLys(Me2)]EN[dL]-NH2 (lactam N-11; disulfide 2-7; SMILES CC(=O)NCCCC[C@@H]1NC(=O)[C@H](Cc2c[nH]c3c(C)cccc23)NC(=O)[C@H]([C@@H](C)O)NC(=O)[C@H](CC(N)=O)NC(=O)[C@@H]2CSSC[C@H](NC1=O)C(=O)N[C@@H](Cc1ccc(OCCN(C)C)cc1)C(=O)N[C@@H](Cc1ccc3ccccc3c1)C(=O)N[C@@](C)(CCCCN(C)C)C(=O)N[C@H](C(=O)N[C@@H](CC(N)=O)C(=O)N[C@H](CC(C)C)C(N)=O)CCC(=O)NCCCCC(=O)N2) [Compound of SEQ ID NO: 54] ? 2.59

I am curious: what pSTAT3 (nM) value has been reported for [Ahx]CNTWQC[Phe(4-OMe)][2Nal][Aib]ENN-NH2 (lactam N-11; disulfide 2-7; SMILES COc1ccc(C[C@@H]2NC(=O)[C@@H]3CSSC[C@H](NC(=O)CCCCCNC(=O)CC[C@@H](C(=O)N[C@@H](CC(N)=O)C(=O)N[C@@H](CC(N)=O)C(N)=O)NC(=O)C(C)(C)NC(=O)[C@H](Cc4ccc5ccccc5c4)NC2=O)C(=O)N[C@@H](CC(N)=O)C(=O)N[C@@H]([C@@H](C)O)C(=O)N[C@@H](Cc2c[nH]c4ccccc24)C(=O)N[C@@H](CCC(N)=O)C(=O)N3)cc1) [Compound of SEQ ID NO: 2] ? 54

I am curious: what pSTAT3 (nM) value has been reported for [Ava]CNTWQC[Phe(4-OMe)][2Nal][Aib]ENG-NH2 (lactam N-11; disulfide 2-7; SMILES COc1ccc(C[C@@H]2NC(=O)[C@@H]3CSSC[C@H](NC(=O)CCCCNC(=O)CC[C@@H](C(=O)N[C@@H](CC(N)=O)C(=O)NCC(N)=O)NC(=O)C(C)(C)NC(=O)[C@H](Cc4ccc5ccccc5c4)NC2=O)C(=O)N[C@@H](CC(N)=O)C(=O)N[C@@H]([C@@H](C)O)C(=O)N[C@@H](Cc2c[nH]c4ccccc24)C(=O)N[C@@H](CCC(N)=O)C(=O)N3)cc1) [Compound of SEQ ID NO: 4] ? 34.8
